Target: NIK (Homo sapiens, UniProt Q99558)
Construct: Both assays utilize a truncated form of NIK containing only the catalytic domain; made in house; host or cells: baculovirus expression system (insect cells implied)
Sequence (Q99558 400-655 limits assumed): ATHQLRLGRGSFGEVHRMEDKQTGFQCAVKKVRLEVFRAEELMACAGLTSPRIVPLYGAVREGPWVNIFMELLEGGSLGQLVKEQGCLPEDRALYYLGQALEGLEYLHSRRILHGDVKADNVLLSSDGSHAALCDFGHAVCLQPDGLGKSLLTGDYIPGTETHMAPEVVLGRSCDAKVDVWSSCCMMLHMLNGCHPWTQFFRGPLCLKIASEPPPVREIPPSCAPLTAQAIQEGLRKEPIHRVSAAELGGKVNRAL
Test: homogenous time resolved fluorescence (HTRF) assay for NIK Ki measurement
Type: biochemical
Conditions: truncated NIK (catalytic domain only), autophosphorylation; 10 nM enzyme; 20, 100, 200 or 500 μM ATP; room temperature, 2 hours; read-out: Ki activity in the homogenous time resolved fluorescence (HTRF) assay for NIK
Description: Two formats of biochemical assays are implemented: (1) chemiluminescent (CL) assay for NIK IC50 determination; (2) homogenous time resolved fluorescence (HTRF) assay for NIK Ki measurement. […] The NIK proteins are purified with baculovirus expression system and further biotinylated with N-hydroxysuccinamide biotin ester (Sigma). […] The reaction mixtures are then immobilized on a Streptavidin-coated plate (Pierce). […]
I'd appreciate it if you could supply Ki values for the items below.

Problem: Name the recorded Ki for CNC(=O)c1cc(N2CCc3ccc(C#CC4(O)CCCC4)cc32)ccn1 .
Result: 1 to 30 µM

Problem: So what does the record say about Ki for CC(O)(C#Cc1ccc2c(c1)N(c1nc(N)ncc1Cl)CC2)c1cc(F)ccn1 (stereo not drawn) ?
Result: 1 to 30 µM

Problem: # get_value(readout='Ki', item= COCCOc1ccc(C#C[C@@](C)(O)c2cc(C)on2)cc1Nc1nc(N)ncc1Cl (single isomer, unassigned) )
Result: < 1 µM

Problem: Request the reported Ki associated with Nc1ncc(Cl)c(-c2cn(CC3CCOC3)c3ccc(C#CC4(O)CCCC4)cc23)n1 (stereo not drawn)
Result: < 1 µM

Problem: For OC1(C#Cc2ccc3[nH]c4c(c3c2)-c2ncncc2CCC4)CCCC1 , what is its reported Ki?
Result: < 1 µM

Problem: Which Ki is listed for CC(O)(C#Cc1ccc2ncc(-c3ccnc(N)n3)n2c1)c1nccs1 (stereo not drawn) ?
Result: < 1 µM

Problem: Form field: reported Ki of CC(O)(C#Cc1ccc2c(c1)N(c1ncns1)CC2(C)C)c1nccs1 (stereo not drawn)
Result: < 1 µM

Problem: For the compound COCCNC(=O)c1[nH]c2ccc(C#CC(C)(O)c3nccs3)cc2c1-c1ccncn1 (stereo not drawn) , what Ki is on record?
Result: < 1 µM

Problem: Item under review: OC1(C#Cc2ccc3[nH]nc(-c4ccns4)c3c2)CCCC1 . Reported Ki?
Result: < 1 µM

Problem: Entry CC(O)(C#Cc1ccc2[nH]cc(-c3cnco3)c2c1)c1nccs1 (stereo not drawn) : reported Ki = ?
Result: < 1 µM

Problem: Fill blank: measured Ki of the compound Cn1c2c(c3cc(C#CC4(O)CCCC4)ccc31)-c1nc(N)ncc1CN(Cc1ccccn1)C2=O is ____.
Result: < 1 µM

Problem: Which Ki value is on record for COCCNC(=O)c1c(-c2ccncn2)c2cc(C#CC(C)(O)c3nccs3)ccc2n1C (stereo not drawn) ?
Result: < 1 µM

Problem: So what does the record say about Ki for CC(O)(C#Cc1ccc2c(c1)N(c1nc(N)ncc1Cl)CC2(C)C)c1ccccn1 (stereo not drawn) ?
Result: < 1 µM

Problem: What value of Ki has been recorded for this entry: CC(O)(C#Cc1ccc2c(c1)N(c1nc(N)ncc1Cl)CC2)c1cc(N2CCCCC2)ccn1 (stereo not drawn)
Result: 1 to 30 µM

Problem: Which Ki reading was recorded for the compound C[C@@](O)(C#Cc1ccc2c(c1)N(c1ccncn1)CC21CCOCC1)c1nccs1 ?
Result: < 1 µM

Problem: Given the compound CC(O)(C#Cc1ccc2c(c1)N(c1nc(N)ncc1Cl)CC21CCOCC1)c1nccs1 (racemic) , what is its reported Ki?
Result: < 1 µM

Problem: Record request: Ki value, item CN1CCC2(C1)CN(c1nc(N)ncc1Cl)c1cc(C#C[C@](C)(O)c3nccs3)ccc12 (single isomer, unassigned)
Result: 1 to 30 µM

Problem: State the recorded Ki for this entry: CC1(CO)CN(c2nc(N)ncc2F)c2cc(C#CC3(O)CCCC3)ccc21 (stereo not drawn)
Result: < 1 µM

Problem: Using the record for Cc1cc(C(C)(O)C#Cc2ccc3c(c2)N(c2nc(N)ncc2Cl)CC32CCOCC2)no1 (racemic) , report its Ki.
Result: < 1 µM

Problem: Which Ki value is on record for C[C@@](O)(C#Cc1ccc2[nH]cc(-c3ccncn3)c2c1)c1nccs1 ?
Result: < 1 µM

Problem: Endpoint output: Ki of CN1CC2(C1)CN(c1nc(N)ncc1Cl)c1cc(C#CC(C)(O)c3nccs3)ccc12 (racemic) [Example 181] . Value?
Result: < 1 µM

Origin of measurements: patent US20110086834A1
